Exercise: state measured growth for each of the molecules provided.
System: U251 CNS
Assay: NCI-60 one-dose screen, 48 h (100 = growth as untreated, 0 = no growth, -100 = all killed)
Conditions: 10 µM unless noted
Compounds without any hit were thinned out: in the full panel of roughly 83,000, 20% have a hit.
One number for each entry, in %.

Below are worked cases with known answers.
COc1cccc(CC(C)=C(c2ccc(OCCN3CCCCC3)cc2)c2ccc(OCCN3CCCCC3)cc2)c1 ... -83.7
C=C1CCC2C3(C)COC(C)(C)OC3CCC2(C)C1C/C=C1/C(=O)OCC1Oc1ccccc1OC (centres undefined) ... 100
O=C1c2c(c3c4ccccc4n(CCCCCCBr)c3c3[nH]c4ccccc4c23)C(=O)N1O ... 10.9
Cc1ccc(-c2csc(NC(=O)CCCCl)n2)cc1 ... 95.4
Cc1ccc(/C=C2\CN(C(=O)CCN3CCC(=NO)CC3)C/C(=C\c3ccc(C)cc3)C2=O)cc1 ... -49.6
c1ccc(Nc2nc(Nc3ccccc3)nc(Nc3ccccc3)n2)cc1 ... 91.4

Batch of 8 molecules: report growth for each.
1. O=C1/C(=C/c2ccc(Cl)cc2)CN(Cc2cn(CCNc3ccnc4cc(Cl)ccc34)nn2)C/C1=C\c1ccc(Cl)cc1
2. COc1cc(-c2nn(-c3cccc(NC(=O)c4cccc(C(F)(F)F)c4)c3)cc2-c2ccncc2)ccc1Cl
3. O=C(CN1CCN(c2cc3c(cc2F)c(=O)c(C(=O)N/N=C/c2ccccc2O)cn3C2CC2)CC1)N/N=C\c1ccccc1O
4. CCCCN(CCCC)C(=O)CC
5. NC1=C(/C(N)=N/O)C(c2ccccc2)c2ccc3ccccc3c2O1 (centres undefined)
6. COc1ccc2[nH]c(C(=O)OCc3ccc4c(Cl)cc(Cl)c(O)c4n3)cc2c1
7. C=C1CCC2C3(C)COC(c4c(OC)cccc4OC)OC3CCC2(C)C1C/C=C1/C(=O)OCC1O (centres undefined)
8. S=c1[nH]nc(-c2cc3ccc2CCc2ccc(cc2)CC3)n1C1CC1

Key:
-100
13.1
24.8
120
19.6
7.6
35.4
97.4

Could you report growth for every entry in the following list?
1. COc1ccc(C(=O)n2nc(/C=C/c3ccc(O)c(OC)c3)cc2/C=C/c2ccc(O)c(OC)c2)cc1
2. O=[N+]([O-])c1ccc(C(c2ccccc2)c2ccccc2)cc1
3. COc1cc2c(cc1OCCCN1CCN(CCCn3c4ccccc4c4ccccc43)CC1)N=C[C@@H]1CCCN1C2=O
4. CCCCCCCCCCCCCCCCCCNC(=O)[C@H]1CSC(c2ccc(OC)cc2O)N1 (some centres undefined)

Key:
[0.801, 102, -99.1, 63.9]

Exercise: Form field: growth recorded for `CCN(CC)c1ccc2[nH]c3c(C(N)=O)cc(=O)c(=O)c=3oc2c1` with U251 CNS (enter value)
Key: -4.95

###

Tested on: NCI-H522 lung
Assay: NCI-60 one-dose screen, 48 h
Settings: 10 µM unless noted
Description: Growth inhibition of the NCI-H522 human Non-Small Cell Lung tumor cell line is measured as a screen for anti-cancer activity. Cells are grown in 96 well plates and exposed to the test compound for 48 hours. Compounds are tested at a single concentration, which is 10^-5 M for most compounds. The reported endpoint is percent growth (GI% or GIPRCNT), where numbers from 0 - 100% represent growth inhibition, and numbers from -100% - 0 represent cell death. […]
About 83,000 compounds went through this panel and 20% of them were active in at least one assay; those are over-represented in the sample as a whole. Activity calls are given as the source filed them. Rule for the calls: active = growth percent below 10; inactive = the rest.
Respond with a class label; see TRUE for active, FALSE for inactive

Consider the following illustrative entries.
CN1C=CN(Cc2ccc(-c3ccccn3)nc2)[CH-]1.CN1C=CN(Cc2ccc(-c3ccccn3)nc2)[CH-]1.[Au+3] ... FALSE
CCOC(=O)C1CCNC(=O)C1=O (centres undefined) ... FALSE

Exercise: Returns: the outcome recorded for `CCCCOc1ccc(/C=C2/SC(N3CCOCC3)=NC2=O)cc1OCC` in this assay.
Key: FALSE

Exercise: Also O=C1c2c(Cl)c(Cl)c(Cl)c(Cl)c2C(=O)C2(Cl)CC=CCC12Cl (centres undefined) ?
Key: TRUE

Exercise: How about this compound: `COc1ccc(/C=C2\CN(Cc3cn(CCNc4ccnc5cc(Cl)ccc45)nn3)C/C(=C\c3ccc(OC)c(OC)c3)C2=O)cc1OC`
Key: TRUE

Exercise: Same question for `C=C(C)[C@@H]1C[C@@H]2Cc3cc(Cl)ccc3N1O2` please.
Key: FALSE

Exercise: Entry `C=CCn1cc(-c2nc3ccccc3s2)c2cc(-c3ccc4c5c(cccc35)C(=O)N(CCN3CCNCC3)C4=O)ccc21` please
Key: FALSE

Exercise: Same question, `CCCCCc1cc[n+](CC(=O)c2ccc([N+](=O)[O-])cc2)cc1` this time
Key: FALSE

Exercise: What would you report for COC(=O)C(Sc1ccc(Cl)cc1)C1SC(=S)N(Cc2ccccc2)C1=O (centres undefined) ?
Key: FALSE

Data provenance is PubChem BioAssay (NCI).
